All values here come from patent US20220298237A1.

# tgt: T1, oligopeptide ATYPSGHLDM (SEQ ID NO: 1) (human and mouse)
# T1 construct: Synthetic peptide; positions 148 to 157 of the human AQP3 polypeptide, identical in mouse; also called peptide used for immunization; oligopeptide 5
# T1 peptide: ATYPSGHLDM
# experiment.notes: ELISA on the immunogen peptide (FIG. 2)
parameter.measured: binding result

Note to self: binding result recorded for Antibody K (antibody, mouse IgG2a, kappa, V domains shown, also called anti AQP3 antibody K) VH: QVQLKQSGAELVRPGTSVKVSCKASGYAFTNYLIEWVKQRPGQGLEWIGVINPGSGGTNYNEKFKGKATLTADKSSSTAYMQLSSLTSEDSAVYFCARWGFYYAMDYWGQGTSVTVSS VL: DIVMTQSPSSLSASLGERVSLTCRASQEISGYLSWLQQKPDGTIKRLIYAASTLDSGVPKRFSGSRSGSDYSLTISSLESEDFADYYCLQYASYPLTFGAGTKLEIKR was binds

Note to self: binding result recorded for Antibody E (antibody, mouse IgG2a, kappa, V domains shown, also called anti AQP3 antibody E; Antiboy E) VH: EVKLLESGAELVRPGASVTLSCKASGYTFTDYEMHWVKQTPVHGLEWIGGIDPESGGTGYNQKFKGKAILTADKSSSTAYMELRSLTSEDSAVYFCTRSGYYGSPLLDYWGQGTTLTVSS VL: QIVLSQSPAIMSASLGERVTMTCTASSSVSSSYLHWYQQKPGSSPKLWIYSTSNLASGVPARFSGSGSGTSYSLTISSMEAEDAATYYCHQYHRSPPTFGAGTKLEIKR was binds

Note to self: binding result recorded for Antibody G (antibody, mouse IgG2a, kappa, V domains shown, also called anti AQP3 antibody G; Antiboy G) VH: QVQLKQSGAELVRPGASVTLSCKASGYTFTDYEMHWVKQTPVHGLEWIGGIDPETGGTAYNQKFKGKAILTADKSSSTAYMELRSLTSEDSAVYYCTRWGAITSFVALRGFAYWGQGTLVTVSS VL: DIQMTQSPSSLSVSAGEKVTMSCKSSQSLLNSGNQKNYLAWYQQKPGQPPKLLIYGASTRESGVPDRFTGSGSGTDFTLTISSVQAEDLAVYYCQNDHSYPPTFGAGTKLELKR was binds
